Test system: NCI-H460
Assay: NCI tumour cell line growth inhibition, 48 h
Active and inactive are the calls of the source. Cut-off read from the data, not from the text of the source: active = GI50 up to about 1.1 µM and inactive = higher.
PROPERTY: GI50

Study these solved cases before continuing.
COc1ccccc1N1C(=O)/C(=C/c2ccc(N(CCC#N)CCC#N)cc2C)N=C1c1cc([N+](=O)[O-])ccc1Cl    > 100 µM (inactive)
Nc1ncnc2c1nc(Cl)n2C1OC2COP(=O)(O)OC2C1O (stereo not given)    4 µM (inactive)
COc1ccc(C)c2c1N[C@](C)([C@]1(C)Nc3c(OC)ccc(C)c3C1=O)C2=O    > 100 µM (inactive)
CCOC(=O)C(C)(NC(=O)c1ccc(NCc2ccc3nc(NC(=O)c4ccccc4)nc(NC(=O)c4ccccc4)c3c2)cc1)C(=O)OCC    14.5 µM (inactive)

Prompt: Missing value: GI50, NCI-H460, entry N=C(N)c1ccc(/N=N\c2c(O)ccc3c2[nH]c2ccccc23)cc1 . Fill in?
Completion: 2.76 µM (inactive)

Prompt: Missing value: GI50, NCI-H460, entry O=C1C2C3C=C4c5ccccc5N(c5ccccc5)C4(C2C(=O)N1Cc1ccccc1)C1C(=O)N(Cc2ccccc2)C(=O)C31 (stereo not given) . Fill in?
Completion: > 100 µM (inactive)

Prompt: Missing value: GI50, NCI-H460, entry C/C(=N\OCC(O)CNCCSCc1ccccc1)c1ccccc1Cl (stereo not given) . Fill in?
Completion: 21.6 µM (inactive)

Prompt: Missing value: GI50, NCI-H460, entry Nc1nc(N)c2nn(-c3ccc(C(=O)O)cc3)nc2n1 . Fill in?
Completion: > 100 µM (inactive)

Prompt: Missing value: GI50, NCI-H460, entry CCN(c1cccc(NC(=S)Nc2ccccc2N(CC)c2cc(-c3ccccc3)no2)c1)c1cc(-c2ccccc2)no1 . Fill in?
Completion: > 100 µM (inactive)

Prompt: Missing value: GI50, NCI-H460, entry COc1ccc(/C=C/c2nccc3ccccc23)cc1OC . Fill in?
Completion: > 10 µM (inactive)

Prompt: Missing value: GI50, NCI-H460, entry NCCCC(N)(C(=O)O)C(F)F (stereo not given) . Fill in?
Completion: 933 µM (inactive)

Prompt: Missing value: GI50, NCI-H460, entry N=C1OC(CN2CCN(c3ccccc3)CC2)CN1C(=O)Nc1ccccc1 (stereo not given) . Fill in?
Completion: > 100 µM (inactive)

Prompt: Missing value: GI50, NCI-H460, entry C=C(COC(C)=O)CC(/C=C(\C)CCC=C(C)C)OC(C)=O (stereo not given) . Fill in?
Completion: > 100 µM (inactive)

Prompt: Missing value: GI50, NCI-H460, entry N/N=C(\C(=O)Nc1c(Cl)cc([N+](=O)[O-])cc1Cl)C(c1cnc2ccc([N+](=O)[O-])cc2n1)[N+](=O)[O-] (stereo not given) . Fill in?
Completion: > 100 µM (inactive)

Prompt: Missing value: GI50, NCI-H460, entry O=C(NC(=O)c1ccccc1[N+](=O)[O-])Nc1ccc(Oc2ncc(Cl)cn2)c(C(F)(F)F)c1 . Fill in?
Completion: < 0.01 µM (active)

Prompt: Missing value: GI50, NCI-H460, entry C=C(CS(=O)(=O)c1ccccc1)[P+](c1ccccc1)(c1ccccc1)c1ccccc1 . Fill in?
Completion: 22.1 µM (inactive)

Prompt: Missing value: GI50, NCI-H460, entry CCN(CC)CCN1C(=O)CC2[C@@H]3CCc4cc(OC)ccc4C3CC[C@]2(C)C1=O (stereo not given in full) . Fill in?
Completion: 37.6 µM (inactive)

Prompt: Missing value: GI50, NCI-H460, entry CC(C)(C)OC(=O)N1N=CCC1c1ccccc1 (stereo not given) . Fill in?
Completion: > 100 µM (inactive)

Prompt: Missing value: GI50, NCI-H460, entry CCCCCCC(C)OC(=O)/C=C(\CC(=O)OC(C)CCCCCC)C(=O)OC(C)CCCCCC (stereo not given) . Fill in?
Completion: > 100 µM (inactive)

Prompt: Missing value: GI50, NCI-H460, entry COc1cc(/C=N/NC(=O)c2c(Cl)c(Cl)c(Cl)c(Cl)c2-c2nc3ccccc3[nH]2)ccc1O . Fill in?
Completion: 19.1 µM (inactive)

Values were extracted from ChEMBL document CHEMBL1201862.
